Give measured kon for each item. Keep answers brief.
target: native Tsal proteins in G. m. morsitans saliva (Glossina morsitans morsitans (endogenous in saliva)); assay: SPR; 4000 RU G. m. morsitans saliva amine-coupled (10 mM sodium acetate pH 4.5) on a CM5 chip; purified Nb analytes 500 to 0.976 nM; BIAcore T200; contact 180 s, dissociation 600 s, 10 ul/min; Langmuir 1:1 fit
Answers are plain numbers, in M⁻¹ s⁻¹.

[[record]]
binder = "TsalNb-10 (VHH) VHH: QVQLQESGGGLVQVGGSLRLSCAASGSIFSNNYMGWYRQAPGKQRELVAGITSGGSTNYADSVKGRFTISRDNAKNTVYLQMNNLKPEDTAVYNCKPRGWLTGRWENYWGQGTQVTVSS"
endpoint_value = "1.3e+06"

[[record]]
binder = "TsalNb-3 (VHH) VHH: QVQLQESGGGLVQVGGSLRLSCAVSGSIFSNNYMGWYRQAPGKQRELVAGITSGGSTNYADSVKGRFTISRDNAKNTVYLQMNSLLPEDTAVYYCKPRGWLTGRWENYWGQGTQVTVSS"
endpoint_value = 930000

[[record]]
binder = "TsalNb-8 (VHH) VHH: QVQLQESGGGLVQPGGSLRLSCAASVLTLDYYAMAWYRQAPGKQREGVSCITSSGGRTNYADSVKGRFTISRDNAKNMVYLQMNSLKPEDTAVYYCAATEWLAGTKCLSSHEYDYWGQGTQVTVSS"
endpoint_value = 970000

[[record]]
binder = "TsalNb-11 (VHH) VHH: QVQLQESGGGLVQPGESLRLSCAASEFTLDYYAMAWYRQAPGKQREGVSCITSSGGRTNYADSVKGRFTISRENGKNTVYLQMSSLKPGDTAVYYCAATEWLAGTKCLGSHEYDYWGQGTQVTVSS"
endpoint_value = "1.3e+06"

[[record]]
binder = "TsalNb-4 (VHH) VHH: QVQLQESGGGLVQVGGSLRLSCTASGSIFSINYAGWYRQAPGKQRELVAGITSGGSTNYADSVKGRFTISRDSAKNTVYLQMNSLKAEDTAVYYCKPRAWLTGRWENYWGQGTQVTVSS"
endpoint_value = "1.1e+06"

[[record]]
binder = "TsalNb-12 (VHH) VHH: QVQLQESGGGLVQPGGSLRLSCTASGSIFSINYANWYRQAPGKQRELVAGITSDGSTNYADSVKGRFTISRDNAKNTVYLQMNRLTPEDTAVYYCKPRAWLTGRWENYWGQGTQVTVSS"
endpoint_value = 830000


Please look at the items below and tell me kon for each one, in order.
1. TsalNb-2 (VHH) VHH: QVQLQESGGGLVQVGGSLRLSCQASGSIFSNSYMGWYRQAPGKQRELVAGITSGGSTNYADSVKGRFTISRDNAKNTVYLQMNSLKPEDTAVYYCKPRAWLTGRWENYWGQGTQVTVSS
2. TsalNb-1 (VHH) VHH: QVQLQESGGGLVQVGGSLRLSCTASGSIFSINYANWYRQAPGKQRELVAGITSDGSTNYADSVKGRFTISRDNAKNTVYLQMNRLTPEDTAVYYCKPRAWLTGRWENYWGQGTQVTVSS
3. TsalNb-5 (VHH) VHH: QVQLQESGGGLVQPGGSLRLSCAGSGLTLDYYAMGWYRQAPGKQREGVSCITSSGGRTNYADSVKGRFTISRDNAKNTVSLQMNSLKPEDTAVYYCAATEWLAGTKCLLSHEYDYWGQGTQVTVSS

["1.2e+06", 850000, 910000]
